- Test system: OVCAR-3 ovarian
- experiment_summary: NCI-60 one-dose screen, 48 h (100 = growth as untreated, 0 = no growth, -100 = all killed)
- cond: 10 µM unless noted
About 83,000 compounds went through this panel and 20% of them were active in at least one assay; those are over-represented in the sample as a whole. Activity calls are given as the source filed them. Rule for the calls: active = growth percent below 10; inactive = the rest.
Recorded growth by entry

Take a look at these entries with their results.
COC(=O)c1ccc(C2Nc3ccc(S(=O)(=O)Nc4ccc(C)c(C)c4)cc3C3OCCC23)cc1 (stereo not given): 79.1% (inactive)
COc1cc(/C=C/C(=O)c2ccc(Nc3nc(Nc4ccc(F)cc4)nc(Nc4ccc(Cl)cc4)n3)cc2)cc(OC)c1OC: 190% (inactive)
COc1ccc(-c2cc(-c3ccc(Nc4nc(Nc5ccc(Cl)cc5)nc(Nc5ccc(Cl)cc5)n4)cc3)nc(N)c2C#N)cc1: -15.5% (active)
C=C1C(=O)O[C@H]2[C@H]1CC/C(CNC(=O)/C=C/c1ccc(Cl)cc1Cl)=C\CC[C@@]1(C)O[C@@H]21: -100% (active)
COc1ccc(/C=N\NC(=O)c2cc(-c3ccc(Br)cc3)n(-c3ccc(S(N)(=O)=O)cc3)n2)cc1: 21.2% (inactive)

Task: I'd like to know its growth. The compound in question is C=C1C(=O)O[C@H]2[C@H]1CC/C(COC(=O)C(=O)c1c[nH]c3ccccc13)=C\CC[C@@]1(C)O[C@@H]21
Output: -82.2% (active)

Task: I'd like to know its growth. The compound in question is COc1cccc(-c2nn(-c3ccccc3)cc2-c2ccnc(NCCNC(=O)c3ccccc3)c2)c1
Output: 63.1% (inactive)

Task: I'd like to know its growth. The compound in question is N#Cc1c(N)nc(NCCO)nc1-c1ccc(F)cc1
Output: 110% (inactive)
